ASSAYED_SYSTEM: WNV NS2B-NS3 protease (West Nile virus, UniProt P06935)
Construct: WNV NS2B 40-amino acid cofactor together with the NS3 protease domain
PROCEDURE_DETAILS: Enzyme kinetic inhibition of WNV NS2B-NS3 protease construct (Dixon plot)
Format: biochemical
EXPERIMENTAL_CONDITIONS: covalently linked WNV NS2B-NS3 construct; substrate Phac-Leu-Lys-Lys-Arg-AMC; Dixon plots, average of at least two measurements
Peptide text beside a SMILES is read from it.
# Ki per record follows
ATTRIBUTE_MEASURED: Ki (µM)

COMPOUND	ATTRIBUTE_MEASURED	RESULT_NUMBER
CC(C)[C@H](NC(=O)[C@H](CCCNC(=N)N)NC(=O)[C@H](CCCCN)NC(=O)[C@H](CCCCN)NC(=O)Cc1ccccc1)C(N)=O [inhibitor 21] (HELM PEPTIDE1{[O=C(Cc1ccccc1)[*:2]].K.K.R.V.[am]}$$$$V2.0)	Ki	105
N=C(N)NCCC[C@H](NC(=O)[C@H](CCCCN)NC(=O)[C@H](CCCCN)NC(=O)Cc1ccccc1)C(N)=O [inhibitor 27] (HELM PEPTIDE1{[O=C(Cc1ccccc1)[*:2]].K.K.R.[am]}$$$$V2.0)	Ki	2.47

---

ASSAYED_SYSTEM: covalently linked WNV NS2B-NS3 protease construct (West Nile virus)
PROCEDURE_DETAILS: enzyme inhibition kinetics (Ki from Dixon plots, fluorogenic substrate); WNV NS2B-NS3 construct ~4 nM in assay; substrate Phac-Leu-Lys-Lys-Arg-AMC 50, 100 and 200 µM (KM = 47.5 µM); 100 mM Tris pH 8.5, 20% glycerol, 0.01% Triton X-100; room temperature; Ki the average of at least two measurements
pKi: −log10 of the molar value.
ATTRIBUTE_MEASURED: pKi

>>> df
                                  substance                            assayed_system  attribute_measured  result_number
0      3-NH2-Phac-Lys-Lys-Arg-NH2 (peptide)  covalently linked WNV NS2B-NS3 protease construct (West Nile virus)                 pKi           5.92
1            Phac-Lys-Lys-Arg-NH2 (peptide)  covalently linked WNV NS2B-NS3 protease construct (West Nile virus)                 pKi           5.61
2  3,4-Cl2-Phac-Lys-Lys-Arg-Gly-NH2 (peptide)  covalently linked WNV NS2B-NS3 protease construct (West Nile virus)                 pKi           5.74
3        Phac-Lys-Lys-Arg-Aca-NH2 (peptide)  covalently linked WNV NS2B-NS3 protease construct (West Nile virus)                 pKi           4.77
4      3-GMe-Phac-Lys-Lys-Arg-NH2 (peptide)  covalently linked WNV NS2B-NS3 protease construct (West Nile virus)                 pKi           6.74
5        Phac-Lys-Lys-Arg-Gly-NH2 (peptide)  covalently linked WNV NS2B-NS3 protease construct (West Nile virus)                 pKi           5.59

---

ASSAYED_SYSTEM: covalently linked WNV NS2B-NS3 protease construct (West Nile virus) (UniProt P06935)
PROCEDURE_DETAILS: enzyme inhibition kinetics (Ki from Dixon plots, fluorogenic substrate); WNV NS2B-NS3 construct ~4 nM in assay; substrate Phac-Leu-Lys-Lys-Arg-AMC 50, 100 and 200 µM (KM = 47.5 µM); 100 mM Tris pH 8.5, 20% glycerol, 0.01% Triton X-100; room temperature; Ki the average of at least two measurements
pKi: −log10 of the molar value.
Assign Met whenever pKi does not fall below 5; assign Not met whenever it does.

>>> df
                                  substance  assigned_label
0       Phac-Lys-Lys-Arg-DAla-NH2 (peptide)         Not met
1  Cyclohexylacetic acid-Lys-Lys-Arg-NH2 (peptide)             Met
2  1-Adamantylglycine-Lys-Lys-Arg-NH2 (peptide)         Not met
3       4-OH-Phac-Lys-Lys-Arg-NH2 (peptide)             Met
4        Phac-Lys-Lys-Arg-Ala-NH2 (peptide)         Not met
5       Phac-Lys-Lys-Arg-Gaba-NH2 (peptide)         Not met
6  3,4-(Methylenedioxy)-Phac-Lys-Lys-Arg-NH2 (peptide)             Met
7      3-AMe-Phac-Lys-Lys-Arg-NH2 (peptide)             Met
8        Phac-Lys-Lys-Arg-Sar-NH2 (peptide)         Not met
9        Phac-Lys-Lys-Arg-Tle-NH2 (peptide)         Not met
